Assay summary: Solubility of active compound (I)
Type: physicochemical
Condition: water
Measure name: solubility

Find the recorded solubility belonging to O=C(NC[C@H]1CN(c2ccc(N3CCOCC3=O)cc2)C(=O)O1)c1ccc(Cl)s1 and report it.
~7 µg/mL
